target: GLP-1 receptor (human, UniProt P43220 24-463); experiment: cell-based or functional assay
Non-standard residues stand in square brackets, D forms with d. No end group written: not given here. *: point of attachment. Palmitoyl = CCCCCCCCCCCCCCCC(=O)*; Aib = CC(C)(N)C(=O)O
assay-readout: EC50 (cAMP luciferase reporter) (nM)

* HSQGTFTSDYSKYLDEQAVRLFICWLLDT-NH2 (not fully specified; also: further groups not given here) [Glucagon Analog 87] | 0.013
* HSQGTFTSDKSKYLDEQAVRLFIC(PEG 40 kDa)WLLDT-NH2 (also: acylated amino acid at position 10, acyl group not given here) [Glucagon Analog 85] | 0.013
* HSQGTFTSDYSKYLD[Aib]KAVRLFICWLLDT-NH2 [Glucagon Analog 86] | 0.035
* HSQGTFTSDK(Palmitoyl)SKYLDEEAVRLFIEWLMNT-NH2 [Glucagon Analog 39] | 0.033
* HSQGTFTSDYSKYLDEQAVRLFICWLLDGGPSSGAPPPS-NH2 (not fully specified; also: further groups not given here) [Glucagon Analog 84] | 0.006
* HSQGTFTSDKSKYLDERAAQDFVC(PEG 40 kDa)WLLDT-NH2 (not fully specified (residue 10); also: Lys10 acylated, acyl group not given here) [Glucagon Analog 29] | 0.084
* HSQGTFTSDYSKYLDEEAVRLFICWLMNT-NH2 (also: DPP-IV-resistant residue at position 1 or 2) [Glucagon Analog 34] | 0.018
* HSQGTFTSDKSKYLDEEAVRLFIEWLMNT-NH2 (also: Lys-γGlu-C16 (K(B)) at unstated position) [Glucagon Analog 37] | 0.011
* HSQGTFTSDYSKYLDEKRAKEFVQWLMNT-NH2 (also: DPP-IV-protecting residue at position 1 or 2: D-Ser, Aib or Dmia, salt bridge Lys17/Glu21 plus salt bridge 16/20 or α,α-disubstituted residue at 16) [Glucagon Analog 20] | 0.284
* HSQGTFTSDYSKYLDEEAVRLFICWLMNT-NH2 (also: DPP-IV-resistant residue at position 1 or 2) [Glucagon Analog 32] | 0.007
